# measurementTarget: T1, HIV-1 Tat 37-mer peptide (tat37) (Human immunodeficiency virus 1, UniProt P69698 SEQ:1-37)
# T1 chain: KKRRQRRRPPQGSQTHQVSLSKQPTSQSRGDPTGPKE
# assayOverview: EMSA; 1:1 KD; 2-3:1 KD 30 nM; 70 mM NaCl, 4 C
# assaySetup: protein: synthetic; tags: chemically synthesized peptide, RP HPLC purified (UCSF Biotechnology Resource Core); label: 32P
pKd: −log10 of the molar value.
propertyName: pKd

Task: For the binder P=S TAR 59-mer (ssRNA, PS at A linkages (A:P=S)) RNA: GGGUCUCUCUGGUUAGACCAGAUCUGAGCCUGGGAGCUCUCUGGCUAACUAGGGAACCC , what pKd is on record?
Output: > 8.00

Measured values drawn from patent US5736294A for this set.
